- MEASURED_TARGET: SARS-CoV-1 RBD WT (SARS-CoV-1, UniProt P59594 306-527)
- ASSAY_EXPLANATION: ELISA
QUANTITY: binding result

Qu. GET /values?readout=binding result&item= S144-466 (antibody, V domains shown) VH: EVQLVQSGAEVKKPGESLKISCKGSGYRFTRYWIGWVRQMPGKGLEWMGIIYLGDSETRYSPSFQGQVTISADNSISTAYLQWSSLKASDTAMYYCARSSNWNYGDYWGQGTLVTVSS VL: DIQMTQSPSTLSASVGDRVTITCRASQSITSWLAWYQQKSGKAPKLLIYDASSLESGVPSRFSGSGSGTEFTLTISSLQPDDFATYYCQQYNSYPWTFGQGTKVEIK
Ans. binds

Qu. Reported binding result for S144-69 (antibody, V domains shown) VH: EVQLVQSGAEVKKPGESLKISCKGSGYSFTSYWIGWVRQMPGKGLEWMGIIYPGDSDTRYSPSFQGQVTISADKSITTAYLQWSSLKASDTAMYYCARTQTTNWFDSWGQGTLVTVSS VL: DIQMTQSPSTLSVSVGDRVTITCRASQSVSSWLAWYQQKPGKAPKLLIYDASSLESGVPSRFSGSGSGTEFTLTISSLQPDDFATYYCQQYNSFYTFGQGTKLEIK : what is it?
Ans. binds

// data source = patent US20250026814A1
